Origin of measurements: ChEMBL document CHEMBL5058577

tested on: Fibroblast; experiment: Multiplex assay against human fibroblast; assay type: toxicity, cell-based; conditions: 12 h, 1 µM, compound concentration 1 uM, replicate 1
testReadout: Population Fragmented Nuclei (%)
All answers are understood in %, so give the number only.

The molecule listed as O=C(O)Cc1ccccc1Nc1c(Cl)cccc1Cl [DICLOFENAC] shows Population Fragmented Nuclei (%) equal to 14

The molecule listed as Cl.Clc1ccc2nsnc2c1NC1=NCCN1 [TIZANIDINE HYDROCHLORIDE] has a reported Population Fragmented Nuclei (%) of 10

Measured Population Fragmented Nuclei (%), Cc1nc2ccc(Oc3ccc(F)cc3)cc2c(=O)n1C[C@H]1CCCN(C(C)C)C1.Cl : 19

Given item O=C1COc2nccc(-c3ccccc3F)c2CN1Cc1cc(C(F)(F)F)cc(C(F)(F)F)c1 , the value recorded as its Population Fragmented Nuclei (%) is 12

Record Cc1ccc(F)cc1C(=O)Nc1ccc(C(=O)N2Cc3cccn3Cc3ccccc32)c(Cl)c1 [LIXIVAPTAN] , field Population Fragmented Nuclei (%): 11

###

system: Fibroblast; assay: Multiplex assay against human fibroblast; assay type: toxicity, cell-based; conditions: 48 h, 10 µM, compound concentration 10 uM, replicate 1
testReadout: Total Cell Count

Just so you know, measured Total Cell Count for CN1CCN2c3ncccc3Cc3ccccc3C2C1 (stereo not given) came out at 176

The compound listed as c1cc(OCCCN2CCCCC2)ccc1CN1CCCCC1 shows Total Cell Count equal to 189

For record CN(C)CCCc1cc(C(=O)Nc2ccc(-c3ccncc3)cc2)ccc1O.Cl.Cl the listed Total Cell Count is 321

Total Cell Count reading for CSc1ccccc1N1CCN(CCCCCC(=O)NC2CCCc3ccccc32)CC1.Cl (stereo not given) : 195

Total Cell Count in this record for O=C(NCC(=O)N1CC[C@H](N[C@H]2CC[C@@](O)(c3ccc(-c4ncccn4)cn3)CC2)C1)c1cccc(C(F)(F)F)c1 : 195

###

tested on: Fibroblast; assay: Multiplex assay against human fibroblast; assay type: toxicity, cell-based; conditions: 24 h, 1 µM, compound concentration 1 uM, replicate 1
testReadout: Population Apoptotic (%)
# unit: % | format: bare number

// Cc1ccccc1C(=O)Nc1ccc(C(=O)N2CCCC(N(C)C)c3ccccc32)cc1.Cl (stereo not given) : Population Apoptotic (%) value = 38

// C[C@@H]1C[C@H]2[C@@H]3CCC4=CC(=O)C=C[C@]4(C)[C@@]3(F)[C@@H](O)C[C@]2(C)[C@@]1(O)C(=O)CO [DEXAMETHASONE] : Population Apoptotic (%) value = 48

Population Apoptotic (%) measured on CC1(COc2ccc3c(c2)ncn3-c2ccc3cccc(N4CCC(N)CC4)c3n2)COC1 [CRENOLANIB] = 92

Per the record, Cc1ccc(C(C)(O)c2nc3ccccc3s2)c(C)c1 (stereo not given) has Population Apoptotic (%) of 31

Population Apoptotic (%) reading for CN1CCN2c3ncccc3Cc3ccccc3C2C1 (stereo not given) [MIRTAZAPINE] : 47

###

tested on: HEK-293T; assay: Multiplex assay against HEK293T; type: toxicity, cell-based; details: human, 24 h, 1 µM, compound concentration 1 uM, replicate 1
Please respond with reported Population Mitotic Cells (%) for every item in the list.
Lab book: enter the figure in %, no units written.

# Population Mitotic Cells (%) measured on HEK-293T for item CC1(COc2ccc3c(c2)ncn3-c2ccc3cccc(N4CCC(N)CC4)c3n2)COC1 [CRENOLANIB] = 70

Observed Population Mitotic Cells (%) on HEK-293T, entry O=C(NCCO)c1cccc(-c2cc(Nc3ccc(OC(F)(F)F)cc3)ncn2)c1 , equals 73

Per the reported HEK-293T data, O=C(O)c1cc2ccccc2c(Cc2c(O)c(C(=O)O)cc3ccccc23)c1O [PAMOIC ACID] has Population Mitotic Cells (%) of 70

Sample N[C@@]1(C(=O)O)CO[C@H]2[C@H](C(=O)O)[C@H]21 [LY-379268] , system: HEK-293T. Its Population Mitotic Cells (%) is 70

The recorded Population Mitotic Cells (%) with HEK-293T for COc1ccc2c(c1)C(C(=O)N(Cc1ccc(N(C)C)cc1)c1ccc(C(C)C)cc1)CCC2.Cl (stereo unspecified) was 68

Measured on HEK-293T, CCOc1c2c(c(OCC)c3ncccc13)CN(c1ccc(CS(=O)(=O)NC(=O)Cc3ccccc3OC)cc1C)C2=O has a documented Population Mitotic Cells (%) of 64
